Biological target: Glucocorticoid receptor (Homo sapiens)
Experiment: ATG_GR_TRANS: Attagene TRANS-FACTORIAL HepG2 Assay for human Glucocorticoid Receptor (GR) (AID 2282978);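 also: activators score as hits since higher reporter transcript over DMSO is fitted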
Settings: HepG2 Attagene TRANS GR reporter, mRNA transcription
Description: ATG_TRANS is a cell-based, multiplexed-readout assay that uses HepG2, a human liver cell line, with measurements taken at 24 hours after chemical dosing in a 24-well plate.ATG_GR_TRANS is one of 30 assay component(s) measured or calculated from the ATG_TRANS assay. […] This assay endpoint, ATG_GR_TRANS, was analyzed in the positive analysis fitting direction relative to DMSO as the negative control and baseline of activity. […]
Records with an inconclusive call do not appear. Active and inactive are the calls of the source. The calls were made as follows: active = hit-call score of the fitted dose curve at least 0.9, where 1 is the maximum; inconclusive = response in the unintended direction; inactive = score below 0.9.
Please answer using one outcome listed in 1 for active, 0 for inactive

These recorded examples may help you get a feel for the data.
Assay outcome for CC1(C)O[C@@H]2C[C@H]3[C@@H]4C[C@H](F)C5=CC(=O)C=C[C@]5(C)[C@@]4(F)[C@@H](O)C[C@]3(C)[C@]2(C(=O)CO)O1 : what was it?
1

Tell me the recorded outcome of this test for CCCCCCCCCCCCCCCCCC#N .
0

// param item: Cc1ccc(N)c([N+](=O)[O-])c1 ; yields the recorded call
0

Could you kindly confirm the outcome this assay logged for C=C[C@](C)(O)CC[C@@H]1[C@@]2(C)CCCC(C)(C)[C@@H]2CC[C@@]1(C)O ?
0

More entries:
Recorded test outcome, item CCCCCCOC(=O)C(C)CC (stereo not drawn)
0

Give the logged outcome of this assay for the following molecule: Nc1ccc(N=Nc2ccccc2)c(N)n1
0

Outcome? O=C(O)CCCC[C@@H]1SC[C@@H]2NC(=O)N[C@@H]21
0

For C=CC=CC=CCCCCC , what call appears in the results of this test?
0

Test call for this molecule, please: CC(=O)C=CC1C(C)=CCC(C)C1(C)C (stereo not drawn)
0

What call does the record list for O=c1[nH]c(=O)c2[nH]c(=O)[nH]c2[nH]1 ?
0

---

Target: human Thyroid Receptor alpha (THRa1), THRA (gene 7067) (UniProt P10827)
Sequence (P10827 whole entry, looked up): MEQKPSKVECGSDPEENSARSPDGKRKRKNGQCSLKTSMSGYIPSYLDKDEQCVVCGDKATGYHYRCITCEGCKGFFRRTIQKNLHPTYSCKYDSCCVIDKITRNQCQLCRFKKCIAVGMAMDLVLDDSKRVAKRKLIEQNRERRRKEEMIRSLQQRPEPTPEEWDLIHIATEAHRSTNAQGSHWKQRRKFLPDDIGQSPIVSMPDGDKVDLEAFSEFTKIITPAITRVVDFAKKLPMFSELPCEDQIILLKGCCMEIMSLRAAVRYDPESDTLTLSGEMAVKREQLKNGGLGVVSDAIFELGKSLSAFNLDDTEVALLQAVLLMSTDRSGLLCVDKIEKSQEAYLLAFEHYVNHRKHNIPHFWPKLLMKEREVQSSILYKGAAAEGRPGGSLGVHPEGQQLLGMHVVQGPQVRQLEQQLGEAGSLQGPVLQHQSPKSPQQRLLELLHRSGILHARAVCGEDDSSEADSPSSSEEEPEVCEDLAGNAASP
Assay: ATG_THRa1_TRANS: Attagene TRANS-FACTORIAL HepG2 Assay for human Thyroid Receptor alpha (THRa1) (AID 2283014)
Records with an inconclusive call do not appear. Active and inactive are the calls of the source. Rule for the calls: active = hit-call score of the fitted dose curve at least 0.9, where 1 is the maximum; inconclusive = response in the unintended direction; inactive = score below 0.9.
Form entry, call: pick from Y for active, N for inactive

Worked cases, answers included:
For this molecule, state the assay outcome: CCN(CCC#N)c1ccc(N=Nc2c(Cl)cc([N+](=O)[O-])cc2Cl)cc1
N

Dear all, I need the recorded test outcome for O=c1[nH]c(=O)c2[nH]c(=O)[nH]c2[nH]1 , thank you.
N

Lab log entry: O=C(Nc1ccccc1SSc1ccccc1NC(=O)c1ccccc1)c1ccccc1 — outcome as called in the assay?
N

Test call, this molecule: COC(=O)C1=C(C)NC(C)=C(C(=O)OCC(C)C)C1c1ccccc1[N+](=O)[O-] (stereo not given)
N

Check the results log: what was the call for CCCCCCCOC(=O)CCC ?
N

New cases:
Fill in: this test's call for O=c1cc[nH]c(=S)[nH]1 is ___
N

Please share the test call associated with CCc1ccc2c(c1)C(=O)c1ccccc1C2=O .
N

Test call, this molecule: CC=C1CC2C=CC1C2 (stereo not given)
N

Outcome logged for O=C(O)c1ccccc1Nc1cccc(C(F)(F)F)c1 in this assay:
N

Entry Oc1ccc(Cl)cc1Cc1cc(Cl)ccc1O : call = ?
N

Outcome? CC(=O)c1ccc2c(c1)CCCC2
N

Per the records of this test, what outcome belongs to O=C(Cl)c1cc(C(=O)Cl)cc(C(=O)Cl)c1 ?
N

Tell me the assay call for CC(C)=CCC[C@H](C)CCO please.
N

Fill in: this test's call for CCOc1ccc(N)c([N+](=O)[O-])c1 is ___
N

Which outcome was assigned to COc1ccc(NC(C)=O)cc1N in this test?
N

What is the recorded call for this molecule in the test? CCCCCCOC(=O)C(C)CC (stereo not given)
N

# outcome recorded in this test, key = CCCCCCCCCCCSCC(=O)O
N

Would you mind telling me which call this test gave CCc1nccnc1C ?
N

Write down the call the test reported for this molecule. Item: NCCCN1CCN(CCCN)CC1
N

Recorded test outcome, item O=C1OC(=O)c2cc(Oc3ccc4c(c3)C(=O)OC4=O)ccc21
N

How was Cc1ccc(OC(=O)CC(C)C)cc1 classified in this test?
N

I'd appreciate the recorded outcome for CC(C)(C)c1ccc(-c2ccc(C(C)(C)C)cc2)cc1 from this test.
N

Please let me know the test result on file for O=C(O)CCCCCCCCCC(=O)O .
N

Name the outcome recorded for S=C(NC1CCCCC1)NC1CCCCC1 in the assay.
N

Record request — test call for O=S(=O)(O)c1ccccc1C=Cc1ccc(-c2ccc(C=Cc3ccccc3S(=O)(=O)O)cc2)cc1
N

// outcome(item) with item = O=C(O)CCCC[C@@H]1SC[C@@H]2NC(=O)N[C@@H]21
N

# outcome recorded in this test, key = Cc1cc(C)c(C)c(C)c1
N

Which outcome was assigned to Cc1oncc1C(=O)Nc1ccc(C(F)(F)F)cc1 in this test?
N

Which outcome was assigned to CCOc1nc(F)cc2nc(S(=O)(=O)Nc3c(Cl)cccc3C(=O)OC)nn12 in this test?
N
